Target: D3-DOP-CLONE (Rattus norvegicus)
Construct: expressed in transfected cells; host or cells: CHO-K1
Experiment: Competition binding against [3H]-spiperone, cloned rat D3 receptors expressed in CHO-K1 cells (Table I)
Conditions: ligand SPI (0.5 nM)
pKi: −log10 of the molar value.
Mark yes for reported pKi of 7 or greater; mark no for anything smaller.

- smilesRecord: "CCCN(CCC)[C@@H]1CCc2ccc(CNS(=O)(=O)c3cn(C)cn3)cc2C1"
  assignedCategory: "no"
- smilesRecord: "CCCN(CCC)[C@@H]1CCc2ccc(NS(=O)(=O)c3ccc(Cl)cc3)cc2C1"
  assignedCategory: "yes"
- smilesRecord: "CCCN(CCC)[C@@H]1CCc2ccc(NS(=O)(=O)c3ccc(C#N)cc3)cc2C1"
  assignedCategory: "no"
- smilesRecord: "CCCN(CCC)[C@@H]1CCc2ccc(CNS(=O)(=O)c3ccc(C#N)cc3)cc2C1"
  assignedCategory: "yes"

We next turn to a different compound, shown below.
State whether the measured pKi reaches 7, counting equality as reaching it, for "CCCN(CCC)[C@@H]1CCc2ccc(CNS(=O)(=O)c3ccc(Cl)cc3)cc2C1"
yes

###

Target: D3-DOP-CLONE (Rattus norvegicus, UniProt P19020)
Construct: expressed in transfected cells; host or cells: CHO-K1
Sequence (P19020 whole entry): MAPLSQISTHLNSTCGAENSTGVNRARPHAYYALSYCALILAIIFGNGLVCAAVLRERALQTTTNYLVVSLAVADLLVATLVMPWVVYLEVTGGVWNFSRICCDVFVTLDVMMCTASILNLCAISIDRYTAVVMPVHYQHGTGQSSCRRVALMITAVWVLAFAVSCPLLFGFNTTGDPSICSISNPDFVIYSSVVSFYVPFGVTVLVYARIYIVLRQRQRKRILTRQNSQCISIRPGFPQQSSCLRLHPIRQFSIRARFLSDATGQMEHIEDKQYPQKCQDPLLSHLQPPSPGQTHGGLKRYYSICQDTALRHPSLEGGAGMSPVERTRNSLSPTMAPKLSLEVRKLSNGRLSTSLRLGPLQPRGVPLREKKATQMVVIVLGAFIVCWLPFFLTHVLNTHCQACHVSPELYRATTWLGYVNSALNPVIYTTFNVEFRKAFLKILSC
Assay: Competition binding against [3H]-7-OH-DPAT, cloned rat D3 receptors expressed in CHO-K1 cells (Table II)
Conditions: ligand 7-OH-DPAT (0.5 nM)
Description: As was done for Table I, competition binding experiments employed eleven dilutions of test compounds of Formula II competing with [^3 H]-5-(dipropylamino)-5,6-dihydro-4H-imidazo(4,5,1-ij)quinolin-2(1H)-one (R-enantiomer) ("86170") (62 Ci/mmol, 2 nM) and [^3 H]-7-OH-DPAT ("7-OH-DPAT") (107 Ci/mmol, 0.5 nM) for D2 and D3 binding sites, respectively. (Lahti, R. A., Eur. J. Pharmacol., 202, 289 (1991)) In each experiment, cloned rat receptors expressed in CHO-K1 cells were used. […]
measure: pKi
One number for each entry, as −log10 of the molar value.

- compound: "CCCN(CCC)C1CCc2nc(OS(=O)(=O)c3ccc(Cl)cc3)ccc2C1 (centres unmarked)"
  pKi: 8.52

Okay, now this compound:
Look up pKi: CCCNC1CCc2nc(OS(=O)(=O)c3ccc(Cl)cc3)ccc2C1 (centres unmarked)
8.22

###

Target: D2-DOP-CLONE (Rattus norvegicus, UniProt P61169)
Construct: expressed in transfected cells; host or cells: CHO-K1
Sequence (P61169 whole entry): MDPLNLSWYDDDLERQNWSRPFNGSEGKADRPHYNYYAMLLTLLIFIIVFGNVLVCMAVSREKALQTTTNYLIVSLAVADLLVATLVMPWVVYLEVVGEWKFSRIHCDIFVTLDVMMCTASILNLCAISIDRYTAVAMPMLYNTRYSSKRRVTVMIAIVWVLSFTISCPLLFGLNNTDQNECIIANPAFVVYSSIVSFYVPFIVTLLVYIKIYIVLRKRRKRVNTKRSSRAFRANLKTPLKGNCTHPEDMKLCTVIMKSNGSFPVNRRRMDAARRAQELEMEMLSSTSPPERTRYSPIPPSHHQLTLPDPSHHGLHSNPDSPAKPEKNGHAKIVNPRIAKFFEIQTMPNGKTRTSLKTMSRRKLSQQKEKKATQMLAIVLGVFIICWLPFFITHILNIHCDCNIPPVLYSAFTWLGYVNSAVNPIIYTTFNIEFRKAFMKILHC
Experiment: Competition binding against [3H]-86170, cloned rat D2 receptors expressed in CHO-K1 cells (Table I)
Details: ligand 86170 (2 nM)
Rule: Ki below 800 nM gives rule met, anything at or above gives rule not met.

- compound: "CCCN(CCC)[C@@H]1CCc2ccc(CNS(=O)(=O)c3ccc([N+](=O)[O-])cc3)cc2C1 [Example 4]"
  assignedCategory: "rule met"

Does the reported Ki of CCCN(CCC)[C@@H]1CCc2ccc(CNS(=O)(=O)c3ccc(C#N)cc3)cc2C1 [Example 2] stay below 800 nM?
rule not met

Below 800 nM on Ki? Entry CCCN(CCC)[C@@H]1CCc2ccc(CNS(=O)(=O)c3cn(C)cn3)cc2C1 [Example 6]
rule not met

Report whether reported Ki is lower than 800 nM (strictly) for CCCN(CCC)[C@@H]1CCc2ccc(CNC(=O)c3ccc(Cl)cc3)cc2C1 [Example 8]
rule met

Below 800 nM on Ki? Entry CCCN(CCC)[C@@H]1CCc2ccc(NS(=O)(=O)c3ccc(Cl)cc3)cc2C1 [Example 10]
rule met

State whether 800 nM exceeds Ki recorded for CCCN(CCC)[C@@H]1CCc2ccc(CNS(=O)(=O)c3ccc(Cl)cc3)cc2C1 [Example 3] .
rule met

Consider CCCN(CCC)[C@@H]1CCc2ccc(NS(=O)(=O)c3ccc(C#N)cc3)cc2C1 [Example 11] . Does its Ki lie strictly below 800 nM?
rule not met
